target: human prostanoid EP1 receptor (Homo sapiens, UniProt P34995); construct: expressed in transfected cells; assay: FLIPR Ca2+ signaling PG antagonist assay, EP1 stable cell line; format: cell-based; conditions: HEK-293 EBNA cells, human recombinant EP1, no exogenous G-protein; standard agonist PGE2
Sequence (P34995 whole entry): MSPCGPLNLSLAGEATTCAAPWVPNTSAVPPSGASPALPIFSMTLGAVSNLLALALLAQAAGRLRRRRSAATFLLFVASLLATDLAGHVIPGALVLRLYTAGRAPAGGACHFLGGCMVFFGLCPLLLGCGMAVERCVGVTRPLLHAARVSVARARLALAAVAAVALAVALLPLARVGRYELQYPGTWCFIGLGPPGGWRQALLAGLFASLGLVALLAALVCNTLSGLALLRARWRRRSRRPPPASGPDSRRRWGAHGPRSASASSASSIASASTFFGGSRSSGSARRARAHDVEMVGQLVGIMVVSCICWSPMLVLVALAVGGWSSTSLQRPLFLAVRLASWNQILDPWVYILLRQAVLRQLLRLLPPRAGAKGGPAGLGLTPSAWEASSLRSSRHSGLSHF
MEASURED ENDPOINT: Kb (µM)
Numbers only, in µM.

Below are worked cases with known answers.
>>> result_number("CCC(CC)COc1ccc(Cl)cc1Cn1ncc2c(C(=O)O)cccc21")
0.07
>>> result_number("CC(C)COc1ccc(Br)cc1Cn1cnc2cc(C(=O)O)ccc21")
0.011
>>> result_number("O=C(O)c1cccc2c1cnn2Cc1cc(Cl)ccc1OCC1CC1")
0.07
>>> result_number("CCC(CC)COc1ccc(C(F)(F)F)cc1Cn1nc(C)c2cc(C(=O)O)ccc21")
0.08
>>> result_number("CCC(CC)COc1ccc(Cl)cc1Cn1nc(C)c2cc(C(=O)O)cnc21")
0.41

For every listed record, write down its Kb.
1. O=C(O)c1ccc2c(cnn2Cc2cc(Cl)ccc2OCc2ccccc2)c1
2. CC(C)COc1ccc(Cl)cc1Cn1ncc2c(C(=O)O)cccc21

Outgoing:
1. 0.22
2. 0.06

The values you see were collected from patent US10988474B2.
